# Test system: COLO 205 colon
# EXPERIMENT: NCI tumour cell line growth inhibition, 48 h

MOLECULE: COC(=O)[C@]1(c2cc3ccccc3n2S(=O)(=O)c2ccccc2)CC2CN(C(=O)OCc3ccccc3)C1C1OC(C)(C)OC21 (stereo not given in full)
TGI: > 100 µM

MOLECULE: O=C1c2cc3c(cc2-c2c1c1cc(F)c(F)cc1c(=O)n2CCCn1ccnc1)OCO3
TGI: 1.62 µM

MOLECULE: Cn1c(=O)oc2cc(C3CCC(=O)N3Cc3csc(-c4ccccc4)n3)ccc21 (stereo not given)
TGI: > 100 µM

MOLECULE: COC1=CC(=O)O/C1=C(\OC)C1OC1c1ccccc1 (stereo not given)
TGI: > 100 µM

MOLECULE: O=c1[nH]c(C2CCCN2)nc2c1oc1ccc(Cl)cc12 (stereo not given)
TGI: > 100 µM

MOLECULE: O=C(Nc1sc2c(c1C(=O)O)CCCC2)c1ccco1
TGI: > 50 µM

MOLECULE: O=C1/C(=C/c2ccccc2)Oc2cc(O)ccc21
TGI: > 100 µM

MOLECULE: O=C1c2cccc3cccc(c23)C(=O)N1CCCCCN1CCN(CCN=c2cc3n(-c4ccc(Cl)cc4)c4ccccc4nc-3cc2Nc2ccc(Cl)cc2)CC1
TGI: > 50 µM

MOLECULE: C[C@@]1(F)[C@H](O)[C@@H](CO)O[C@H]1n1ccc(=O)[nH]c1=O
TGI: > 100 µM

MOLECULE: O=c1c2cccnc2ncn1CCCN1CCCCC1
TGI: > 100 µM

====

# Tested on: MDA-MB-231 breast
# EXPERIMENT: NCI tumour cell line growth inhibition, 48 h
Listed compounds paired with reported TGI

COMPOUND: Oc1ccc(Cl)cc1C=Nc1cnc2ccccc2c1
RESULT QUALIFIER: >
TGI [µM]: 85.7
//
COMPOUND: CC(C)Cc1cnc(CC(C)C)c(=O)[nH]1
RESULT QUALIFIER: >
TGI [µM]: 100
//
COMPOUND: COc1ccc(-c2ccc(C(=O)C=P(c3ccccc3)(c3ccccc3)c3ccccc3)cc2)cc1
RESULT QUALIFIER: =
TGI [µM]: 30.7
//
COMPOUND: O=S(=O)(Nc1nc2ccccc2nc1N1CCCCCC1)c1ccccc1
RESULT QUALIFIER: >
TGI [µM]: 100
//
COMPOUND: OCc1ccc(N(Cc2ccc(F)cc2)Cc2ccc(F)cc2)cc1Cl
RESULT QUALIFIER: =
TGI [µM]: 25.9
//
COMPOUND: COC(=O)c1sc(=O)sc1SCc1cccc(CSc2sc(=O)sc2C(=O)OC)c1
RESULT QUALIFIER: =
TGI [µM]: 67.4
//
COMPOUND: Cc1cccc(C2NC(=O)c3ccccc3N2)c1 (stereo not given)
RESULT QUALIFIER: >
TGI [µM]: 87.6
//
COMPOUND: ClC1=NN=C(c2c[nH]c3ccccc23)CC1NCc1ccccc1 (stereo not given)
RESULT QUALIFIER: >
TGI [µM]: 100
//
COMPOUND: N#Cc1c(NC(=S)Nc2ccc(Cl)cc2)sc2c1CCN(N1CCc3c(sc(NC(=S)Nc4ccc(Cl)cc4)c3C#N)C1)C2
RESULT QUALIFIER: =
TGI [µM]: 27.2
//
COMPOUND: CC(C)(CO[C@H]1C[C@H]2CC[C@@]1(C)C2(C)C)[N+](=O)[O-]
RESULT QUALIFIER: =
TGI [µM]: 34.6
//
COMPOUND: CC1=NN(c2cccc(Cl)c2)C(=O)/C1=C\c1cn(CC(O)CN2CCCCC2)c2ccccc12 (stereo not given)
RESULT QUALIFIER: =
TGI [µM]: 15.8
//
COMPOUND: CCOC(=O)c1c(-c2ccc(OC)cc2)ccn1C
RESULT QUALIFIER: >
TGI [µM]: 10
//
COMPOUND: COc1cc2c(cc1C)NC(=O)/C2=C/c1ccnc2ccccc12
RESULT QUALIFIER: =
TGI [µM]: 32.6
//
COMPOUND: CC1=NN(C(=O)CC(=O)Nc2cccc(C)c2)C(=O)C1N=Nc1ccc(S(=O)(=O)CCOS(=O)(=O)O)cc1 (stereo not given)
RESULT QUALIFIER: =
TGI [µM]: 14.8
//
COMPOUND: COc1cc(O)ccc1C(=S)SC
RESULT QUALIFIER: =
TGI [µM]: 88.4
//
COMPOUND: COc1cc(/C=N/NC(=O)c2cnn3c2NC(c2ccccc2)C3)ccc1OC1CCCC1 (stereo not given)
RESULT QUALIFIER: =
TGI [µM]: 7.85
//
COMPOUND: C[C@]12CC[C@H]3[C@@H](CC=C4C[C@@H](N5CCCC5)CC[C@@]43C)[C@@H]1C[C@H](N1CCCCC1)[C@@H]2O
RESULT QUALIFIER: >
TGI [µM]: 100
//
COMPOUND: CCOC(=O)Nc1ccc2nc(-c3cscn3)[nH]c2c1
RESULT QUALIFIER: >
TGI [µM]: 100
//
COMPOUND: CCOC(=O)NC(=S)N(CC(=O)c1cc(OC)c(OC)c(OC)c1)c1ccc(Cl)cc1
RESULT QUALIFIER: >
TGI [µM]: 100
//
COMPOUND: Cc1cn(CCCCCCOC(=O)NC(CCCNC(N)=O)C(=O)O)c(=O)[nH]c1=O (stereo not given)
RESULT QUALIFIER: >
TGI [µM]: 100
//
COMPOUND: COC1=CC(=O)O/C1=C(\OC)C1OC1c1ccccc1 (stereo not given)
RESULT QUALIFIER: >
TGI [µM]: 100
//
COMPOUND: C=C(NC(=O)C(=C)NC(=O)c1ccc2c(n1)-c1coc(n1)C(=C)NC(=O)C(=C)NC(=O)c1nc(oc1C)C(=C)NC(=O)C(C(C)(C)O)NC(=O)C(=C)NC(=O)c1coc(n1)/C(=C/C)NC(=O)[C@H]([C@@H](C)O)NC(=O)c1csc-2n1)C(N)=O (stereo not given in full)
RESULT QUALIFIER: >
TGI [µM]: 87.5
//
COMPOUND: CCCCCC[C@H]([C@H](C)O)n1cnc2c(N)ncnc21
RESULT QUALIFIER: >
TGI [µM]: 100
//
COMPOUND: O=c1[nH]c(=O)n(COC(CO)CO)cc1-c1ccccc1
RESULT QUALIFIER: >
TGI [µM]: 100
//
COMPOUND: COP(=O)(OC)OCN(C)CC/C=C(\C)CC/C=C(\C)CCC=C(C)C
RESULT QUALIFIER: =
TGI [µM]: 56.3
